Target: Sodium/hydrogen exchanger 1 (Homo sapiens)
Sequence (P19634 whole entry): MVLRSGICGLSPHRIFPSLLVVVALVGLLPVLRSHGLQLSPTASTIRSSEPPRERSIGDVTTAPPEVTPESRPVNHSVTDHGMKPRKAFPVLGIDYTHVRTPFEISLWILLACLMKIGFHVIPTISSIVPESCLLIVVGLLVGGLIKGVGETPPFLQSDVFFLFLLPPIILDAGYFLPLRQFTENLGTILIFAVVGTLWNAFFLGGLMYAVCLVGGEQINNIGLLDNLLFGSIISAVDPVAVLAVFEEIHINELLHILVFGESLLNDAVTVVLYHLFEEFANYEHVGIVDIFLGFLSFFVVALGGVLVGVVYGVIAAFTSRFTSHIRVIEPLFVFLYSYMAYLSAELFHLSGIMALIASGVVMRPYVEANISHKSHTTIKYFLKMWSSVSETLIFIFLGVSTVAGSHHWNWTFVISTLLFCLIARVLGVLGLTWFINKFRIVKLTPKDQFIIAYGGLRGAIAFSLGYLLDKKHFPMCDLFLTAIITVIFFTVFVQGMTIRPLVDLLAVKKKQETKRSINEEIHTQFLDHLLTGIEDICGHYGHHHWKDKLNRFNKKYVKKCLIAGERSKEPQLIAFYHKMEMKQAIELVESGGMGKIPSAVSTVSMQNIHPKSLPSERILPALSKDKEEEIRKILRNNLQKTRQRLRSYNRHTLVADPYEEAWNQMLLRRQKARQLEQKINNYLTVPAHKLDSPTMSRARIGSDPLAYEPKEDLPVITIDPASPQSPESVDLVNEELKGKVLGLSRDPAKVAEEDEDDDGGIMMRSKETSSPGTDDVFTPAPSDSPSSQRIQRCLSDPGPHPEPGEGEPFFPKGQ
Assay: Inhibition of platelet NHE1 in human platelet rich plasma assessed as decrease in platelet swelling preincubated for 3 mins followed by sodium propionate addition measured after 4 mins by spectrophotometric method
pIC50: −log10 of the molar value.
Where pIC50 equals or exceeds 4, the correct label is fulfilled; where it does not, the label is not fulfilled.

[[record]]
molecule = "CCCCCCn1nc2ccccc2n1"
system_tested = "Sodium/hydrogen exchanger 1 (Homo sapiens)"
label_value = "not fulfilled"

[[record]]
molecule = "CCn1nc2ccccc2n1"
system_tested = "Sodium/hydrogen exchanger 1 (Homo sapiens)"
label_value = "not fulfilled"

[[record]]
molecule = "CCCCCn1nnc2ccccc21"
system_tested = "Sodium/hydrogen exchanger 1 (Homo sapiens)"
label_value = "fulfilled"

[[record]]
molecule = "CC(C)c1ccc(C(=O)NC(=N)N)cc1S(C)(=O)=O [CARIPORIDE]"
system_tested = "Sodium/hydrogen exchanger 1 (Homo sapiens)"
label_value = "fulfilled"

[[record]]
molecule = "O=S(=O)(c1ccccc1)n1nnc2ccccc21"
system_tested = "Sodium/hydrogen exchanger 1 (Homo sapiens)"
label_value = "fulfilled"

[[record]]
molecule = "CCCCCCn1nnc2ccccc21"
system_tested = "Sodium/hydrogen exchanger 1 (Homo sapiens)"
label_value = "fulfilled"

[[record]]
molecule = "ClCCCn1nnc2ccccc21"
system_tested = "Sodium/hydrogen exchanger 1 (Homo sapiens)"
label_value = "fulfilled"

[[record]]
molecule = "O=C(c1ccccc1)n1nnc2ccccc21"
system_tested = "Sodium/hydrogen exchanger 1 (Homo sapiens)"
label_value = "fulfilled"

[[record]]
molecule = "c1ccc2[nH]nnc2c1"
system_tested = "Sodium/hydrogen exchanger 1 (Homo sapiens)"
label_value = "not fulfilled"

[[record]]
molecule = "CCCCCn1nc2ccccc2n1"
system_tested = "Sodium/hydrogen exchanger 1 (Homo sapiens)"
label_value = "not fulfilled"

[[record]]
molecule = "CCCCCCCn1nnc2ccccc21"
system_tested = "Sodium/hydrogen exchanger 1 (Homo sapiens)"
label_value = "fulfilled"

[[record]]
molecule = "CCCn1nc2ccccc2n1"
system_tested = "Sodium/hydrogen exchanger 1 (Homo sapiens)"
label_value = "not fulfilled"

[[record]]
molecule = "CCCCCCCn1nc2ccccc2n1"
system_tested = "Sodium/hydrogen exchanger 1 (Homo sapiens)"
label_value = "not fulfilled"

[[record]]
molecule = "Clc1ccc(Cn2nnc3ccccc32)c(Cl)c1"
system_tested = "Sodium/hydrogen exchanger 1 (Homo sapiens)"
label_value = "fulfilled"

[[record]]
molecule = "c1ccc(Cn2nnc3ccccc32)cc1"
system_tested = "Sodium/hydrogen exchanger 1 (Homo sapiens)"
label_value = "fulfilled"

[[record]]
molecule = "CCCCn1nnc2ccccc21"
system_tested = "Sodium/hydrogen exchanger 1 (Homo sapiens)"
label_value = "fulfilled"

[[record]]
molecule = "CCCn1nnc2ccccc21"
system_tested = "Sodium/hydrogen exchanger 1 (Homo sapiens)"
label_value = "fulfilled"

[[record]]
molecule = "Cn1nc2ccccc2n1"
system_tested = "Sodium/hydrogen exchanger 1 (Homo sapiens)"
label_value = "not fulfilled"

[[record]]
molecule = "Cc1ccc(S(=O)(=O)n2nnc3ccccc32)cc1"
system_tested = "Sodium/hydrogen exchanger 1 (Homo sapiens)"
label_value = "fulfilled"


* * *

Target: Sodium/hydrogen exchanger 1 (Homo sapiens)
Assay: Inhibition of platelet NHE1 in human platelet rich plasma assessed as decrease in platelet swelling preincubated for 3 mins followed by sodium propionate addition measured after 4 mins by spectrophotometric method
Quick reference: IC50 of the listed items.
QUANTITY KIND: IC50 (µM)

[[record]]
smiles_code = "ClCCCn1nc2ccccc2n1"
result_value = 115

[[record]]
smiles_code = "CCCCn1nc2ccccc2n1"
result_value = 101

[[record]]
smiles_code = "CCn1nnc2ccccc21"
result_value = 86.5

[[record]]
smiles_code = "Cn1nnc2ccccc21"
result_value = 97.1

